ASSAYED_SYSTEM: PI3Kγ (Homo sapiens, UniProt P48736)
Sequence (P48736 whole entry): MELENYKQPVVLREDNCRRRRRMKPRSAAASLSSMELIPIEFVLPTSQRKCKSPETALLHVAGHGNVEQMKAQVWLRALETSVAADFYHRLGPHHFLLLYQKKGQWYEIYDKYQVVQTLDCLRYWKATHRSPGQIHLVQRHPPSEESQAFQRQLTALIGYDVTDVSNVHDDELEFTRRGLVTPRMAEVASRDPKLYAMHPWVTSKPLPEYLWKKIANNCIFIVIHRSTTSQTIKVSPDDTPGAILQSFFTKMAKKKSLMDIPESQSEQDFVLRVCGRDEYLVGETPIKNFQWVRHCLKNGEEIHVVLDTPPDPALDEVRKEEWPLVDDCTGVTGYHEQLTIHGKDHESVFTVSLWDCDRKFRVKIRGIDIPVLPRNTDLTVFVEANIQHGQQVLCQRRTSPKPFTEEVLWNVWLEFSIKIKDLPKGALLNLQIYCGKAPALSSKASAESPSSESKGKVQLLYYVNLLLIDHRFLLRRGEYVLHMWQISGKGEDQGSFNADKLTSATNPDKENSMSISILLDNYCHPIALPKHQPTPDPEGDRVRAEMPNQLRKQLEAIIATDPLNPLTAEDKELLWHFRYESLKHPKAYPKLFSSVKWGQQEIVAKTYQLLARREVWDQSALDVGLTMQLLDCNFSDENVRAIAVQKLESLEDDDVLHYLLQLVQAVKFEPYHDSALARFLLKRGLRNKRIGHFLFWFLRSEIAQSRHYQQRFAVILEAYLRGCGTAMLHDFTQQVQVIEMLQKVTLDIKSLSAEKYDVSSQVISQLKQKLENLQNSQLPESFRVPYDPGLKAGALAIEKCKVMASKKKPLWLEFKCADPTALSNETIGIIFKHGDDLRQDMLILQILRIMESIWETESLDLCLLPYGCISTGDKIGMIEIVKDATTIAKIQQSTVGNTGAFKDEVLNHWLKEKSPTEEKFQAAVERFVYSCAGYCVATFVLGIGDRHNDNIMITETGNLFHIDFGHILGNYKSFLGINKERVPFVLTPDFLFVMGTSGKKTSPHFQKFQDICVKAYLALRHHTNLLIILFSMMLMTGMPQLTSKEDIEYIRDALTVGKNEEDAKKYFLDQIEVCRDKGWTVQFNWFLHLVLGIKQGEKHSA
PROTOCOL_SUMMARY: PI3K enzyme inhibitory activity in the cell free assay (ADP-Glo Kinase Assay)
MEASUREMENT_PARAMETERS: human recombinant PI3Kγ, ATP 30 μM; read-out: PI3K gamma inhibition
pIC50: −log10 of the molar value. Where a name gives a salt, the structure may show the parent alone.
MEASURED_ATTRIBUTE: pIC50

CC(c1oc(=O)c2ccccc2c1-c1cccc(N(C)C)c1)n1nc(-c2cc(O)cc(F)c2)c2c(N)ncnc21 (stereo not shown)    6.00 to 8.00
CC(c1oc(=O)c2ccccc2c1-c1cncs1)n1ncc2c(N)ncnc21 (stereo not shown)    < 6.00
CC(=O)N1CC=C(c2c(C(C)n3nc(-c4cc(O)cc(F)c4)c4c(N)ncnc43)oc(=O)c3ccccc23)CC1 (stereo not shown)    6.00 to 8.00

Hello, I am looking for reported pIC50 with PI3Kγ (Homo sapiens, UniProt P48736) for CC(c1oc(=O)c2ccccc2c1C1=CCN(C(=O)C2CN(C)C2)CC1)n1nc(-c2cc(O)cc(F)c2)c2c(N)ncnc21 (stereo not shown) [Example 151, formate] . Could you help? 6.00 to 8.00

And then CC(c1oc(=O)c2ccccc2c1C1=CC(C)(C)NC(C)(C)C1)n1nc(-c2cncc(O)c2)c2c(N)ncnc21 (stereo not shown) [Example 145, dihydrochloride] , what is it? 6.00 to 8.00

And then CC(c1oc(=O)c2ccccc2c1C1=CCCN(C2CCN(C)CC2)C1)n1nc(-c2cc(O)cc(F)c2)c2c(N)ncnc21 (stereo not shown) [Example 172, dihydrochloride] , what is it? 6.00 to 8.00

And then Nc1ncnc2c1ncn2Cc1oc(=O)c2ccccc2c1-c1ccccc1F , what is it? < 6.00

And then CC(Nc1ncnc2[nH]cnc12)c1oc(=O)c2ccccc2c1-c1cccc(N(C)C)c1 (stereo not shown) , what is it? 6.00 to 8.00

Hey, just so you know, these numbers are from patent US9321776B2.
